# Test name: in vitro
# Assay type: in vitro ADME, human
# Experimental parameters: human, Recovery of OXB, Donor chamber cap, Average (%)
Measured property: recovery at 24 h, 6 % (%)

{"Structure as smiles": "COc1ccc(C(=O)c2ccccc2)c(O)c1", "Display unit": "%", "Endpoint value": 0.6}

---

# Test name: in vitro
# Assay type: in vitro ADME, human
# Experimental parameters: human, Recovery of OXB, Rinse 2, Average (%)

{"Structure as smiles": "COc1ccc(C(=O)c2ccccc2)c(O)c1", "recovery at 24 h, 6 %, %": 22.9}

---

# Test name: in vitro
# Assay type: in vitro ADME, human
# Experimental parameters: human, Average total recovery of OXB from the permeation study
Measured property: recovery at 24 h, 6 %

{"Compound": "COc1ccc(C(=O)c2ccccc2)c(O)c1 [OXB, Oxybenzone]", "Endpoint value": "~75%"}

---

# Test name: in vitro
# Format: in vitro ADME, human
# Experimental parameters: human, Recovery of OXB, Rinse 1, Average (%)

{"Compound": "COc1ccc(C(=O)c2ccccc2)c(O)c1 [OXB, Oxybenzone]", "Display unit": "%", "recovery at 24 h, 6 %": 24}
